The compounds listed here are annotated with their IC50.
- studySystem: Somatostatin receptor
- assayExplanation: Binding affinity in competition with [125I]- CGP-23996 in somatostatin receptor binding to rat brain membrane
Positions of bridges follow the written chain, without caps; N, C: chain ends. Non-standard residues stand in square brackets, D forms with d. Residues, ends and D or L forms follow the SMILES beside them. Tic = O=C(O)[C@@H]1Cc2ccccc2CN1; Pen = CC(C)(S)[C@H](N)C(=O)O
readout: IC50

compound="C[C@@H](O)[C@@H]1NC(=O)[C@H](CCCCN)NC(=O)C(Cc2c[nH]c3ccccc23)NC(=O)[C@H](Cc2ccc(O)cc2)NC(=O)[C@@H](NC(=O)[C@H](N)Cc2ccccc2)CSSC(C)(C)[C@@H](C(=O)N[C@@H](CC(N)=O)C(N)=O)NC1=O (stereo in doubt)" studysystem="Somatostatin receptor" measuredvalue="1.801 µM"
compound=CC(C)[C@H](NC(=O)[C@H]1NC(=O)[C@H]([C@@H](C)O)NC(=O)[C@H](CCCCN)NC(=O)[C@H](Cc2c[nH]c3ccccc23)NC(=O)[C@H](Cc2ccc(O)cc2)NC(=O)[C@@H](NC(=O)[C@H]2Cc3ccccc3CN2)CSSC1(C)C)C(N)=O studysystem="Somatostatin receptor" measuredvalue="1.992 µM"
compound=C[C@@H](O)[C@H](NC(=O)[C@H]1NC(=O)[C@H](CC(N)=O)NC(=O)[C@H](Cc2ccc(O)cc2)NC(=O)[C@@H](NC(=O)[C@@H](N)Cc2ccccc2)CSSC1(C)C)C(N)=O studysystem="Somatostatin receptor" measuredvalue="> 100 µM"
compound="C[C@@H](O)[C@@H]1NC(=O)[C@H](CCCCN)NC(=O)C(Cc2c[nH]c3ccccc23)NC(=O)[C@H](Cc2ccc(O)cc2)NC(=O)[C@@H](NC(=O)[C@H](N)Cc2ccccc2)CSSC(C)(C)[C@@H](C(N)=O)NC1=O (stereo in doubt)" studysystem="Somatostatin receptor" measuredvalue="1.942 µM"
compound="C[C@@H](O)[C@@H]1NC(=O)[C@H](CCCCN)NC(=O)C(Cc2c[nH]c3ccccc23)NC(=O)[C@H](Cc2ccc(O)cc2)NC(=O)[C@@H](NC(=O)[C@H](N)Cc2ccccc2)CSSC(C)(C)[C@@H](C(=O)N[C@@H](CC(=O)O)C(N)=O)NC1=O (stereo in doubt)" studysystem="Somatostatin receptor" measuredvalue="8.3 µM"
compound="C[C@@H](O)[C@H](NC(=O)[C@H]1NC(=O)[C@H]([C@@H](C)O)NC(=O)[C@H](CCCN=C(N)N)NC(=O)[C@H](Cc2c[nH]c3ccccc23)NC(=O)[C@H](Cc2ccc(O)cc2)NC(=O)[C@@H](NC(=O)[C@@H]2Cc3ccccc3CN2)CSSC1(C)C)C(N)=O (H-[Tic]CYWRT[Pen]T-NH2; disulfide 2-7)" studysystem="Somatostatin receptor" measuredvalue="34.336 µM"
compound=C[C@@H](O)[C@H](NC(=O)[C@H]1NC(=O)[C@H]([C@@H](C)O)NC(=O)[C@H](CCCNC(=N)N)NC(=O)[C@@H](Cc2c[nH]c3ccccc23)NC(=O)[C@H](Cc2ccc(O)cc2)NC(=O)[C@@H](NC(=O)[C@H](N)Cc2ccccc2)CSSC1(C)C)C(N)=O studysystem="Somatostatin receptor" measuredvalue="8.452 µM"
compound="C[C@@H](O)[C@@H]1NC(=O)[C@H](CCCCN)NC(=O)C(Cc2c[nH]c3ccccc23)NC(=O)[C@H](Cc2ccc(O)cc2)NC(=O)[C@@H](NC(=O)[C@H]2Cc3ccccc3CN2)CSSC(C)(C)[C@@H](C(=O)N[C@@H](CO)C(N)=O)NC1=O (stereo in doubt)" studysystem="Somatostatin receptor" measuredvalue="1.499 µM"
compound=C[C@@H](O)[C@H](NC(=O)[C@H]1NC(=O)[C@H]([C@@H](C)O)NC(=O)[C@H](CCCCN)NC(=O)[C@H](Cc2c[nH]c3ccccc23)NC(=O)[C@H](Cc2ccc(O)cc2)NC(=O)[C@@H](NC(=O)[C@@H](N)Cc2ccccc2)CSSC1(C)C)C(N)=O studysystem="Somatostatin receptor" measuredvalue="1.462 µM"
compound="C[C@@H](O)[C@H](NC(=O)[C@H]1NC(=O)[C@H]([C@@H](C)O)NC(=O)[C@H](CCCN)NC(=O)C(Cc2c[nH]c3ccccc23)NC(=O)[C@@H](Cc2ccc(O)cc2)NC(=O)[C@@H](NC(=O)[C@H]2Cc3ccccc3CN2C(=O)CN)CSSC1(C)C)C(N)=O (stereo in doubt)" studysystem="Somatostatin receptor" measuredvalue="19.408 µM"
compound="C[C@@H](O)[C@H](NC(=O)[C@H]1NC(=O)[C@H]([C@@H](C)O)NC(=O)[C@H](CCCCN)NC(=O)C(Cc2c[nH]c3ccccc23)NC(=O)[C@H](Cc2ccc(O)cc2)NC(=O)[C@@H](NC(=O)C(N)Cc2c[nH]c3ccccc23)CSSC1(C)C)C(N)=O (stereo in doubt)" studysystem="Somatostatin receptor" measuredvalue="1.599 µM"
compound="C[C@@H](O)[C@H](NC(=O)[C@@H]1NC(=O)[C@H](CCCCN)NC(=O)C(Cc2c[nH]c3ccccc23)NC(=O)[C@H](Cc2ccc(O)cc2)NC(=O)[C@@H](NC(=O)[C@@H](N)Cc2ccccc2)CSSC1(C)C)C(N)=O (stereo in doubt)" studysystem="Somatostatin receptor" measuredvalue="6.103 µM"
compound="C[C@@H](O)[C@@H]1NC(=O)[C@H](CCCCN)NC(=O)C(Cc2c[nH]c3ccccc23)NC(=O)[C@H](Cc2ccc(O)cc2)NC(=O)[C@@H](NC(=O)[C@H](N)Cc2ccccc2)CSSC(C)(C)[C@@H](C(=O)N[C@@H](CO)C(N)=O)NC1=O (stereo in doubt)" studysystem="Somatostatin receptor" measuredvalue="1.888 µM"

----------
Lab note: pIC50 readings collected with Mu-type opioid receptor (Rattus norvegicus, UniProt P33535) for the following compounds.
Sequence (P33535 whole entry): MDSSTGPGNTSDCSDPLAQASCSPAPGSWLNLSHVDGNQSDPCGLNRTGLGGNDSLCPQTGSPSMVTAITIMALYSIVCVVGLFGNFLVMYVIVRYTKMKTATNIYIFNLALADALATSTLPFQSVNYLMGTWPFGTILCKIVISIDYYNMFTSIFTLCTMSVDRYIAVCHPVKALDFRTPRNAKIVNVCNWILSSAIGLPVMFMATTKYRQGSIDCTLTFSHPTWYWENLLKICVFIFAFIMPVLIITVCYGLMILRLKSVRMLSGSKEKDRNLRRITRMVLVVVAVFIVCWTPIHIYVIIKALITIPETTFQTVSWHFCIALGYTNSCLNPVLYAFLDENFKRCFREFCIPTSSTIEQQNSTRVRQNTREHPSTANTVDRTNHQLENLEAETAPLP
pIC50: −log10 of the molar value.
readout: pIC50

compound=C[C@@H](O)[C@H](NC(=O)[C@H]1NC(=O)[C@H](CC(N)=O)NC(=O)[C@H](Cc2ccccc2)NC(=O)[C@@H](NC(=O)[C@H](N)Cc2ccc(O)cc2)CSSC1(C)C)C(N)=O measuredvalue=5.13
compound=C[C@@H](O)[C@H](NC(=O)[C@H]1NC(=O)[C@H]([C@@H](C)O)NC(=O)[C@H](CCCN)NC(=O)[C@@H](Cc2c[nH]c3ccccc23)NC(=O)[C@H](Cc2ccc(O)cc2)NC(=O)[C@@H](NC(=O)[C@H]2Cc3ccccc3CN2)CSSC1(C)C)C(N)=O measuredvalue=8.85
compound="C[C@@H](O)[C@H](NC(=O)[C@H]1NC(=O)[C@H](CCCCN)NC(=O)C(Cc2c[nH]c3ccccc23)NC(=O)[C@@H](Cc2ccc(O)cc2)NC(=O)[C@@H](NC(=O)[C@H]2Cc3ccccc3CN2)CSSC1(C)C)C(N)=O (stereo in doubt)" measuredvalue=5.03
compound="C[C@@H](O)[C@@H]1NC(=O)[C@H](CCCCN)NC(=O)C(Cc2c[nH]c3ccccc23)NC(=O)[C@H](Cc2ccc(O)cc2)NC(=O)[C@@H](NC(=O)[C@H](N)Cc2ccccc2)CSSC(C)(C)[C@@H](C(N)=O)NC1=O (stereo in doubt)" measuredvalue=6.94
compound=C[C@@H](O)[C@H](NC(=O)[C@@H]1NC(=O)[C@H]([C@@H](C)O)NC(=O)[C@@H](Cc2c[nH]c3ccccc23)NC(=O)[C@H](Cc2ccc(O)cc2)NC(=O)[C@@H](NC(=O)[C@H](N)Cc2ccccc2)CSSC1(C)C)C(N)=O measuredvalue=5.00

----------
- studySystem: Delta-type opioid receptor (Rattus norvegicus, UniProt P33533)
- Sequence (P33533 whole entry): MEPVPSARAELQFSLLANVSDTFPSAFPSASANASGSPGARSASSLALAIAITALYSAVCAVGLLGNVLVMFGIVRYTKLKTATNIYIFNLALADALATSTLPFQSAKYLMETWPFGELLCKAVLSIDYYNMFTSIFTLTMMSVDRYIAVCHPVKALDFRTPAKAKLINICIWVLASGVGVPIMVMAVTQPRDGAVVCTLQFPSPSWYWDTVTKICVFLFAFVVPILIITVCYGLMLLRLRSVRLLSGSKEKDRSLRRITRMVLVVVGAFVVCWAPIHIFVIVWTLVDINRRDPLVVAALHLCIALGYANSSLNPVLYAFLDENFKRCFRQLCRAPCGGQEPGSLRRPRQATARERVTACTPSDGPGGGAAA
- assayExplanation: Binding affinity in competition with [3H]- DPDPE in Opioid receptor delta 1 binding to rat brain membrane
pIC50: −log10 of the molar value.
The compounds listed here are annotated with their pIC50.
readout: pIC50

compound="C[C@@H](O)[C@H](NC(=O)[C@H]1NC(=O)[C@H]([C@@H](C)O)NC(=O)[C@H](CCCCN)NC(=O)C(Cc2c[nH]c3ccccc23)NC(=O)[C@@H](Cc2ccc(O)cc2)NC(=O)[C@@H](NC(=O)[C@H]2Cc3ccccc3CN2)CSSC1(C)C)C(N)=O (stereo in doubt)" studysystem="Delta-type opioid receptor (Rattus norvegicus, UniProt P33533)" readout=pIC50 measuredvalue=5.03
compound="CN[C@H](Cc1ccccc1)C(=O)N[C@H]1CSSC(C)(C)[C@@H](C(=O)N[C@H](C(N)=O)[C@@H](C)O)NC(=O)[C@H]([C@@H](C)O)NC(=O)[C@H](CCCN)NC(=O)C(Cc2c[nH]c3ccccc23)NC(=O)[C@H](Cc2ccc(O)cc2)NC1=O (stereo in doubt)" studysystem="Delta-type opioid receptor (Rattus norvegicus, UniProt P33533)" readout=pIC50 measuredvalue="< 5.00"
compound="C[C@@H](O)[C@@H]1NC(=O)[C@H](CCCCN)NC(=O)C(Cc2c[nH]c3ccccc23)NC(=O)[C@H](Cc2ccc(O)cc2)NC(=O)[C@@H](NC(=O)[C@H](N)Cc2ccccc2)CSSC(C)(C)[C@@H](C(=O)N[C@@H](CO)C(N)=O)NC1=O (stereo in doubt)" studysystem="Delta-type opioid receptor (Rattus norvegicus, UniProt P33533)" readout=pIC50 measuredvalue="< 5.00"
